# assayNotes: Pharmacokinetic study with Compound 218 (IV 5 mg/kg, PO 25 mg/kg)
# Assay type: in vivo
# conditionSet: male, beagle, dog, plasma, intravenous, 5 mg/kg, fasted male beagle dogs, Compound 218 administered; read-out: volume of distribution (Vd) (dose/Co)
metricName: Vd (L/kg)
Use L/kg as the unit, but write only the number.

Exercise: Any idea what its Vd is? The compound is `CC(=O)[C@H]1CC[C@H]2[C@@H]3CC[C@H]4C[C@](C)(OC(=O)COC(=O)C(C)(C)N)CC[C@]4(C)[C@H]3CC[C@]12C`
Solution: 1.82

---

What microsomal CLint was measured for each of the following?
# assayNotes: in vitro
# Type: in vitro ADME, human
# conditionSet: human liver microsomes 0.5 mg/mL, with NADPH, compound 0.5 μM; read-out: Human Liver Microsomal Stability CLint (uL/min/mg liver) (converted)
Use µL/min/mg as the unit, but write only the number.

Exercise: Any idea what its microsomal CLint is? The molecule is `CC(=O)[C@H]1CC[C@H]2[C@@H]3CC[C@H]4C[C@](C)(OC(=O)CN5CCC[C@H]5C(=O)O)CC[C@]4(C)[C@H]3CC[C@]12C`
Solution: 1.52

Exercise: Consider next the molecule `CC(=O)[C@H]1CC[C@H]2[C@@H]3CC[C@H]4C[C@](C)(OC(=O)C[C@H](N)C(=O)O)CC[C@]4(C)[C@H]3CC[C@]12C` in the same way.
Solution: 7.81

Exercise: Consider next the molecule `CC(=O)[C@H]1CC[C@H]2[C@@H]3CC[C@H]4C[C@](C)(OC(=O)CCC(=O)NCCN(C)C)CC[C@]4(C)[C@H]3CC[C@]12C` in the same way.
Solution: 3.16

Exercise: Consider next the molecule `COCCN(CCO)CC(=O)OC(C)(C)C(=O)OCC(=O)O[C@]1(C)CC[C@@]2(C)[C@@H](CC[C@@H]3[C@@H]2CC[C@]2(C)[C@@H](C(C)=O)CC[C@@H]32)C1` in the same way.
Solution: 269

---

What log10 microsomal CLint was measured for each of the following?
# assayNotes: in vitro
# Type: in vitro ADME, human
# conditionSet: human liver microsomes 0.5 mg/mL, with NADPH, compound 0.5 μM; read-out: Human Liver Microsomal Stability CLint (uL/min/mg liver) (converted)
The base-10 logarithm of microsomal CLint, taken with microsomal CLint in µL/min/mg, is what appears here.

Exercise: Any idea what its log10 microsomal CLint is? The molecule is `CCOCCC(=O)OCC(=O)O[C@]1(C)CC[C@@]2(C)[C@@H](CC[C@@H]3[C@@H]2CC[C@]2(C)[C@@H](C(C)=O)CC[C@@H]32)C1`
Solution: 2.79

Exercise: Consider next the molecule `CC(=O)[C@H]1CC[C@H]2[C@@H]3CC[C@H]4C[C@](C)(OC(=O)CSCCOC(=O)CN5CCOCC5)CC[C@]4(C)[C@H]3CC[C@]12C` in the same way.
Solution: 2.78

Exercise: Consider next the molecule `COCCOCCOCC(=O)OCO[C@]1(C)CC[C@@]2(C)[C@@H](CC[C@@H]3[C@@H]2CC[C@]2(C)[C@@H](C(C)=O)CC[C@@H]32)C1` in the same way.
Solution: 2.39

Exercise: Consider next the molecule `CC(=O)[C@H]1CC[C@H]2[C@@H]3CC[C@H]4C[C@](C)(OC(=O)CSC(C)(C)C(=O)O)CC[C@]4(C)[C@H]3CC[C@]12C` in the same way.
Solution: 0.91

Exercise: Consider next the molecule `COC(=O)CNCC(=O)O[C@]1(C)CC[C@@]2(C)[C@@H](CC[C@@H]3[C@@H]2CC[C@]2(C)[C@@H](C(C)=O)CC[C@@H]32)C1` in the same way.
Solution: 2.54

Exercise: Consider next the molecule `CC(=O)OCCN(CCOC(C)=O)CC(=O)OC(C)(C)C(=O)OCC(=O)O[C@]1(C)CC[C@@]2(C)[C@@H](CC[C@@H]3[C@@H]2CC[C@]2(C)[C@@H](C(C)=O)CC[C@@H]32)C1` in the same way.
Solution: 2.36

Exercise: Consider next the molecule `COc1ccccc1N1CCN(CC(=O)O[C@]2(C)CC[C@@]3(C)[C@@H](CC[C@@H]4[C@@H]3CC[C@]3(C)[C@@H](C(C)=O)CC[C@@H]43)C2)CC1` in the same way.
Solution: 2.06

Exercise: Consider next the molecule `CC(=O)[C@H]1CC[C@H]2[C@@H]3CC[C@H]4C[C@](C)(CC(=O)COC(=O)NCCN(C)C)CC[C@]4(C)[C@H]3CC[C@]12C` in the same way.
Solution: 0.64

Exercise: Consider next the molecule `CC(=O)[C@H]1CC[C@H]2[C@@H]3CC[C@H]4C[C@](C)(OC(=O)COC(=O)C(C)(C)OC(=O)CN(CCO)CCO)CC[C@]4(C)[C@H]3CC[C@]12C` in the same way.
Solution: 2.35

Exercise: Consider next the molecule `CC(=O)[C@H]1CC[C@H]2[C@@H]3CC[C@H]4C[C@](C)(OC(=O)COC(=O)OC5CNC5)CC[C@]4(C)[C@H]3CC[C@]12C` in the same way.
Solution: 1.34

Exercise: Consider next the molecule `CC(=O)[C@H]1CC[C@H]2[C@@H]3CC[C@H]4C[C@](C)(OC(=O)COC(=O)CN5CCN(C)CC5)CC[C@]4(C)[C@H]3CC[C@]12C` in the same way.
Solution: 1.57

Exercise: Consider next the molecule `COCCOCCOCC(=O)OCC(=O)O[C@]1(C)CC[C@@]2(C)[C@@H](CC[C@@H]3[C@@H]2CC[C@]2(C)[C@@H](C(C)=O)CC[C@@H]32)C1` in the same way.
Solution: 2.59

Exercise: Consider next the molecule `CC(=O)[C@H]1CC[C@H]2[C@@H]3CC[C@H]4C[C@](C)(OC(=O)OCCN(C)C)CC[C@]4(C)[C@H]3CC[C@]12C` in the same way.
Solution: 1.55

Exercise: Consider next the molecule `CC(=O)[C@H]1CC[C@H]2[C@@H]3CC[C@H]4C[C@](C)(OC(=O)CN[C@@H](C)C(=O)O)CC[C@]4(C)[C@H]3CC[C@]12C` in the same way.
Solution: 0.83

---

# assayNotes: in vitro
# Type: in vitro ADME, human
# conditionSet: human liver microsomes, no NADPH, 1 h, compound 0.5 μM
metricName: Human Liver Microsomal Stability no NADPH, % remain 1 h (%)
Use % as the unit, but write only the number.

Exercise: Any idea what its Human Liver Microsomal Stability no NADPH, % remain 1 h is? The compound is `CC(=O)[C@H]1CC[C@H]2[C@@H]3CC[C@H]4C[C@](C)(OC(=O)COC(=O)[C@H](CC(C)C)NC(=O)[C@@H](N)CC(C)C)CC[C@]4(C)[C@H]3CC[C@]12C`
Solution: 88

Exercise: Consider next the compound `CC(=O)COCN(CCO)CC(=O)OC(C)(C)C(=O)OCC(=O)O[C@]1(C)CC[C@@]2(C)[C@@H](CC[C@@H]3[C@@H]2CC[C@]2(C)[C@@H](C(C)=O)CC[C@@H]32)C1` in the same way.
Solution: 1

Exercise: Consider next the compound `COc1ccccc1N1CCN(CC(=O)O[C@]2(C)CC[C@@]3(C)[C@@H](CC[C@@H]4[C@@H]3CC[C@]3(C)[C@@H](C(C)=O)CC[C@@H]43)C2)CC1` in the same way.
Solution: 100.0

Exercise: Consider next the compound `CC(=O)[C@H]1CC[C@H]2[C@@H]3CC[C@H]4C[C@](C)(OC(=O)CN[C@@H](C)C(=O)O)CC[C@]4(C)[C@H]3CC[C@]12C` in the same way.
Solution: 82

Exercise: Consider next the compound `CC(=O)[C@H]1CC[C@H]2[C@@H]3CC[C@H]4C[C@](C)(OC(=O)COC(=O)C(C)(C)OC(=O)CN(C)CCCO)CC[C@]4(C)[C@H]3CC[C@]12C` in the same way.
Solution: 69.7

Exercise: Consider next the compound `CC(=O)OCCN(CCOC(C)=O)CC(=O)OC(C)(C)C(=O)OCC(=O)O[C@]1(C)CC[C@@]2(C)[C@@H](CC[C@@H]3[C@@H]2CC[C@]2(C)[C@@H](C(C)=O)CC[C@@H]32)C1` in the same way.
Solution: 1

---

What half-life was measured for each of the following?
# assayNotes: in vitro
# Type: in vitro ADME, human
# conditionSet: human liver microsomes 0.5 mg/mL, with NADPH, compound 0.5 μM, 37° C.; read-out: Human Liver Microsomal Stability t1/2
Use min as the unit, but write only the number.

Exercise: Any idea what its half-life is? The compound is `COCCN(C)CC(=O)O[C@]1(C)CC[C@@]2(C)[C@@H](CC[C@@H]3[C@@H]2CC[C@]2(C)[C@@H](C(C)=O)CC[C@@H]32)C1`
Solution: 12

Exercise: Consider next the compound `COCCOCC(=O)OCC(=O)O[C@]1(C)CC[C@@]2(C)[C@@H](CC[C@@H]3[C@@H]2CC[C@]2(C)[C@@H](C(C)=O)CC[C@@H]32)C1` in the same way.
Solution: 4.12

Exercise: Consider next the compound `CC(=O)[C@H]1CC[C@H]2[C@@H]3CC[C@H]4C[C@](C)(OC(=O)COC(=O)[C@H](C)N5CCOCC5)CC[C@]4(C)[C@H]3CC[C@]12C` in the same way.
Solution: 10.5

Exercise: Consider next the compound `CC(=O)[C@H]1CC[C@H]2[C@@H]3CC[C@H]4C[C@](C)(OC(=O)CCC(=O)O)CC[C@]4(C)[C@H]3CC[C@]12C` in the same way.
Solution: 79.8
